Test system: A2780 ovarian cancer cells
Test Details: Cellular proliferation in A2780 cells, Cell Titer Glo (Biological Method 4)
Type: cell-based
Measurement Parameters: Homo sapiens; ovarian cancer cell line A2780
pEC50: −log10 of the molar value.
Readout: pEC50

Endpoint output: pEC50 of N#Cc1ccccc1Nc1cc(-c2cnc(N)nc2)nc(N2CCOCC2)n1 . Value?
> 5.00

Endpoint output: pEC50 of COc1ncccc1Nc1cc(-c2ccc(N)nc2)nc(N2CCOCC2)n1 . Value?
> 5.00

Endpoint output: pEC50 of CN1CCC(Oc2ccc(Nc3cc(-c4cnc(N)nc4)nc(N4CCOCC4)n3)cn2)C1 (stereo not shown) . Value?
> 6.00

Endpoint output: pEC50 of CC(C)C(=O)N1CCC[C@H](Oc2cc(-c3cnc(N)nc3N)nc(N3CCOCC3)n2)C1 . Value?
> 5.00
